System: RAW 264.7 macrophages
Assay method text: Cytotoxicity against RAW 264.7 macrophages (MTT)
Format: cell-based, murine
Test settings: RAW 264.7 cells, 72 h
Metric: CC50

Ask: Provide CC50, recorded with RAW 264.7 macrophages, of C[C@@H]1[C@H](O)[C@@H](C)/C=C/C=C/C=C/C=C/C=C/C=C/C=C/[C@H](O[C@@H]2O[C@H](C)[C@@H](O)[C@H](N)[C@@H]2O)C[C@@H]2O[C@](O)(C[C@@H](O)C[C@@H](O)[C@H](O)CC[C@@H](O)C[C@@H](O)CC(=O)O[C@H]1C)C[C@H](O)[C@H]2C(=O)O [Amphotericin B, reference compound]
Result: 500 nM

----------
Test system: L. (V.) braziliensis intramacrophage amastigotes
Assay method text: Treatment of RAW 264.7 macrophages infected with L. (V.) braziliensis (intramacrophage amastigotes)
Type: cell-based, Leishmania (Viannia) braziliensis
Test settings: RAW 264.7 infected with L. (V.) braziliensis, 72 h of treatment
Below, each entry is listed with its recorded pEC50.
Notebook: values listed as pEC50 are -log10 of the concentration (mol/L).

Compound	Metric	Numeric readout
CC(C)(C)c1ccc(N/C(=N\C(=O)c2ccccc2)NCc2ccccc2)cc1	pEC50	5.41

Ask: // fetch pEC50 given entry C[C@@H]1[C@H](O)[C@@H](C)/C=C/C=C/C=C/C=C/C=C/C=C/C=C/[C@H](O[C@@H]2O[C@H](C)[C@@H](O)[C@H](N)[C@@H]2O)C[C@@H]2O[C@](O)(C[C@@H](O)C[C@@H](O)[C@H](O)CC[C@@H](O)C[C@@H](O)CC(=O)O[C@H]1C)C[C@H](O)[C@H]2C(=O)O [Amphotericin B, reference compound]
Result: 6.52

Ask: Identify the reported pEC50 for the following entry. O=C(/N=C(/NCc1ccccc1)Nc1ccc(Br)cc1)c1ccccc1
Result: 5.38

Ask: Specify measured pEC50 for O=C(/N=C(/NCc1ccccc1)Nc1ccc([N+](=O)[O-])cc1)c1ccccc1 .
Result: 5.44

Ask: Give reported pEC50 value for O=C(/N=C(/NCc1ccccc1)Nc1ccc(I)cc1)c1ccccc1
Result: 5.09

----------
System: aorta
Assay method text: Vasodilator effect on aortic rings (KCl contraction)
Test settings: Cavia porcellus; guinea pig aortic rings
Method: Guinea pigs of either sex weighing between 250 or 380 g were utilized in this study. The animals were housed in a controlled environment in an air-conditioned room, maintaining a temperature of 22 to 24 °C and a relative humidity of 50% to 60%. A 12 h light–dark cycle was maintained. On the day of the experiments, the animals were euthanized via cervical dislocation. […]
Metric: EC50 (µM)
The reply should contain only the number, in µM.

Structure	Subject of test	Numeric readout
O=C(/N=C(/NCc1ccccc1)Nc1cccc(Br)c1)c1ccccc1	aorta	29

Ask: // fetch EC50 given entry O=C(/N=C(/NCc1ccccc1)Nc1ccc(Br)cc1)c1ccccc1
Result: 16

----------
// values below are reported viability at 72 h, 9.375 µmol/L
Assay method text: Cell toxicity, MTT-based EZ4U assay, A549
Set-up: species or system human
Test settings: human, A549 cells (alveolar basal epithelial adenocarcinoma); A549, 9.375 µmol/L, 72 h
Experimental: […] To assess cell viability after 72 h of exposure to the compounds, we employed a 3-(4,5-dimethylthiazol-2-yl)-2,5-diphenyltetrazolium bromide (MTT)-based vitality assay kit (EZ4U, Biomedica, Vienna, Austria). […] Subsequently, we measured the absorbance using a microplate reader at 450 nm, with 620 nm as a reference to reduce unspecific background values. […]
Please append the unit to your numeric answer.

Below, each entry is followed by its recorded viability at 72 h, 9.375 µmol/L result.
Compound	viability at 72 h, 9.375 µmol/L
O=C(/N=C(/NCc1ccccc1)Nc1ccc([N+](=O)[O-])cc1)c1ccccc1 [LQOF-G1]	103%
O=C(/N=C(/NCc1ccc(Cl)cc1Cl)Nc1ccc(Br)cc1)c1ccccc1 [LQOF-G32]	165%

Ask: Please list viability at 72 h, 9.375 µmol/L recorded for the compound O=C(/N=C(/NCc1ccccc1)Nc1ccc(Br)cc1)c1ccccc1 [LQOF-G2]
Result: 102%

----------
Assay method text: Cell toxicity, MTT-based EZ4U assay, CaCo-2
Test settings: human, CaCo-2 cells (colon carcinoma), CACO2, 600 µmol/L
Metric: viability at 72 h, 600 µmol/L (%)
Field format: number, assumed %, no unit text.

Ask: Return viability at 72 h, 600 µmol/L (reported value) for this molecule: O=C(/N=C(/NCc1ccccc1)Nc1ccc([N+](=O)[O-])cc1)c1ccccc1
Result: 119

Ask: Name the recorded viability at 72 h, 600 µmol/L of the item O=C(/N=C(/NCc1ccccc1)Nc1ccc(Br)cc1)c1ccccc1 in your answer.
Result: 119

Ask: Could you please provide reported viability at 72 h, 600 µmol/L for O=C(/N=C(/NCc1ccc(Cl)cc1Cl)Nc1ccc(Br)cc1)c1ccccc1 ? Thanks!
Result: 66

----------
# viability at 72 h, 4.6875 µmol/L listing for each entry below
Assay method text: Cell toxicity, MTT-based EZ4U assay, A549
Parameters: species or system human
Test settings: human, A549 cells (alveolar basal epithelial adenocarcinoma); A549, 4.6875 µmol/L, 72 h
Description: […] To assess cell viability after 72 h of exposure to the compounds, we employed a 3-(4,5-dimethylthiazol-2-yl)-2,5-diphenyltetrazolium bromide (MTT)-based vitality assay kit (EZ4U, Biomedica, Vienna, Austria). […] Subsequently, we measured the absorbance using a microplate reader at 450 nm, with 620 nm as a reference to reduce unspecific background values. […]
Give just the number in %; leave the unit off.

Compound	viability at 72 h, 4.6875 µmol/L [%]
O=C(/N=C(/NCc1ccc(Cl)cc1Cl)Nc1ccc(Br)cc1)c1ccccc1 [LQOF-G32]	157
O=C(/N=C(/NCc1ccccc1)Nc1ccc(Br)cc1)c1ccccc1 [LQOF-G2]	109

From here, focus on the item given below.
Ask: Entry O=C(/N=C(/NCc1ccccc1)Nc1ccc([N+](=O)[O-])cc1)c1ccccc1 [LQOF-G1] needs its viability at 72 h, 4.6875 µmol/L filled in; supply it.
Result: 97

----------
System: L. (V.) braziliensis promastigotes
Assay method text: Antileishmanial activity on promastigotes (MTT, 72 h)
Type: cell-based, Leishmania (Viannia) braziliensis
Test settings: Leishmania braziliensis
Please use Criterion met for IC50 under 5 µM and Criterion not met for everything else, ties included.

Worked examples follow.
Compound	Subject of test	Assigned label
CC(C)(C)c1ccc(N/C(=N\C(=O)c2ccccc2)NCc2ccccc2)cc1	L. (V.) braziliensis promastigotes	Criterion not met
O=C(/N=C(/NCc1ccccc1)Nc1ccc(Br)cc1)c1ccccc1	L. (V.) braziliensis promastigotes	Criterion not met
O=C(/N=C(/NCc1ccccc1)Nc1ccccc1Br)c1ccccc1	L. (V.) braziliensis promastigotes	Criterion not met
O=C(/N=C(/NCc1ccc(Cl)cc1Cl)Nc1ccc(Br)cc1)c1ccccc1	L. (V.) braziliensis promastigotes	Criterion not met
O=C(/N=C(/NCc1ccccc1)Nc1ccc([N+](=O)[O-])cc1)c1ccccc1	L. (V.) braziliensis promastigotes	Criterion met

Ask: For this compound, is IC50 lower than 5 µM? C[C@@H]1[C@H](O)[C@@H](C)/C=C/C=C/C=C/C=C/C=C/C=C/C=C/[C@H](O[C@@H]2O[C@H](C)[C@@H](O)[C@H](N)[C@@H]2O)C[C@@H]2O[C@](O)(C[C@@H](O)C[C@@H](O)[C@H](O)CC[C@@H](O)C[C@@H](O)CC(=O)O[C@H]1C)C[C@H](O)[C@H]2C(=O)O [Amphotericin B, reference compound]
Result: Criterion met

Ask: IC50 strictly < 5 µM for this compound? O=C(/N=C(/NCc1ccccc1)Nc1ccc(I)cc1)c1ccccc1
Result: Criterion not met

Ask: Would you kindly verify if IC50 of O=C(/N=C(/NCc1ccccc1)Nc1cccc(Br)c1)c1ccccc1 is strictly less than 5 µM?
Result: Criterion not met

----------
Assay method text: Cell toxicity, MTT-based EZ4U assay, HEK-293
Design: species or system human
Test settings: human, HEK-293 cells (embryonic kidney); HEK, 150 µmol/L, 72 h
Below is a list of entries, each paired with its recorded viability at 72 h, 150 µmol/L value.
Field: numeric (%). Do not append units.

Structure	Result unit	viability at 72 h, 150 µmol/L
O=C(/N=C(/NCc1ccc(Cl)cc1Cl)Nc1ccc(Br)cc1)c1ccccc1	%	94
O=C(/N=C(/NCc1ccccc1)Nc1ccc([N+](=O)[O-])cc1)c1ccccc1	%	111

// moving on: another record for viability at 72 h, 150 µmol/L
Ask: Indicate the recorded viability at 72 h, 150 µmol/L value for this molecule: O=C(/N=C(/NCc1ccccc1)Nc1ccc(Br)cc1)c1ccccc1
Result: 145

----------
Parameter viability at 72 h, 37.5 µmol/L: see the listing below.
Assay method text: Cell toxicity, MTT-based EZ4U assay, CaCo-2
Test settings: human, CaCo-2 cells (colon carcinoma), CACO2, 37.5 µmol/L
Dear colleague, please return just the value in %, with no unit written.

Some compounds with known viability at 72 h, 37.5 µmol/L results, for comparison:
Structure	Metric	Result unit	Numeric readout
O=C(/N=C(/NCc1ccc(Cl)cc1Cl)Nc1ccc(Br)cc1)c1ccccc1	viability at 72 h, 37.5 µmol/L	%	79
O=C(/N=C(/NCc1ccccc1)Nc1ccc([N+](=O)[O-])cc1)c1ccccc1	viability at 72 h, 37.5 µmol/L	%	97

Now consider the entry below.
Ask: Read off the recorded viability at 72 h, 37.5 µmol/L for O=C(/N=C(/NCc1ccccc1)Nc1ccc(Br)cc1)c1ccccc1
Result: 97
